Numbers sourced from patent US4757076A.

- subject_of_test: aromatase (Rattus norvegicus, UniProt P22443)
- Construct: ovarian microsomes are obtained from rats treated with pregnant mares serum gonadotropin
- Sequence (P22443 whole entry): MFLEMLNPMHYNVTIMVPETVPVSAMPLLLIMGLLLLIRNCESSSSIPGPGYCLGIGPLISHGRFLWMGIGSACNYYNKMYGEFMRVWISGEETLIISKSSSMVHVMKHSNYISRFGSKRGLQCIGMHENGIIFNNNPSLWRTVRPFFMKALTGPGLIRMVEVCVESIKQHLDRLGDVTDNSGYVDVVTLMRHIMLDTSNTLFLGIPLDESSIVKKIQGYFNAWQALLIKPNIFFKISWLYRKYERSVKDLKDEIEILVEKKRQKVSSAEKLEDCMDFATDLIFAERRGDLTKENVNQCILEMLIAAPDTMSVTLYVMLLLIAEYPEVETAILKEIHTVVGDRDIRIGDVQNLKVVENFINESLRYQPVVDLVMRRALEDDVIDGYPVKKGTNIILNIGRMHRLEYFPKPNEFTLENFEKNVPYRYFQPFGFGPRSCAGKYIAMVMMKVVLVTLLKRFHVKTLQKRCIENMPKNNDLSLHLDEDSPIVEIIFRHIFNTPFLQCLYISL
- protocol_details: Aromatase inhibition in the rat ovarian microsome assay (modified isolated rat ovarian microsome method of Brodie et al.)
- condition_description: rat ovarian microsomes; substrate (androstenedione) concentration 0.1 μM
Where a name gives a salt, the structure may show the parent alone.
Items are presented alongside their recorded pEC50.
Formally, pEC50 is defined as -log10 of the concentration c, with c in mol/L.

* OC(c1cccnc1)(c1cccc(Br)c1)c1cccc(Br)c1 | 5.66
* Clc1ccc(Cc2ccncc2)cc1 [4-(4-chlorobenzyl)pyridine] | 6.26
* OC(c1ccccc1)(c1cccnc1)c1ccc(F)cc1F (centres unmarked) | 5.69
* O=[N+]([O-])c1ccc(Cc2ccncc2)cc1 [4-(4-nitrobenzyl)pyridine] | 6.01
* OC(Cc1ccc(Cl)cc1)(c1ccncc1)c1ccc(Cl)cc1 (centres unmarked) | 6.73

Specify pEC50 for Cc1ccc(C(O)(c2ccccc2)c2cccnc2)cc1 (centres unmarked) , system aromatase (Rattus norvegicus, UniProt P22443).
5.62

Specify pEC50 for OC(Cc1ccc(Cl)c(Cl)c1)(c1ccc(Cl)cc1)c1cccnc1 (centres unmarked) , system aromatase (Rattus norvegicus, UniProt P22443).
5.50

Specify pEC50 for OC(Cc1ccc(Cl)cc1Cl)(c1ccc(Cl)cc1)c1cccnc1 (centres unmarked) , system aromatase (Rattus norvegicus, UniProt P22443).
5.49

Specify pEC50 for OC(Cc1ccc(Cl)cc1)(Cc1ccc(Cl)cc1Cl)c1cccnc1 (centres unmarked) , system aromatase (Rattus norvegicus, UniProt P22443).
5.62

Specify pEC50 for CCCN(CCC)C(c1ccc(Cl)cc1)c1cccnc1 (centres unmarked) , system aromatase (Rattus norvegicus, UniProt P22443).
6.82

Specify pEC50 for OC(Cc1ccc(Cl)cc1Cl)(Cc1ccc(Cl)cc1Cl)c1cccnc1 [hydrochloride] , system aromatase (Rattus norvegicus, UniProt P22443).
5.73

Specify pEC50 for OC(Cc1ccc(Cl)cc1)(c1ccc(Cl)cc1)c1cccnc1 (centres unmarked) , system aromatase (Rattus norvegicus, UniProt P22443).
5.54

Specify pEC50 for Cc1cncc(C(O)(c2ccccc2)c2ccc(Cl)cc2)c1 (centres unmarked) , system aromatase (Rattus norvegicus, UniProt P22443).
5.39

Specify pEC50 for OC(Cc1ccc(Cl)cc1)(c1cccnc1)c1cccc(Cl)c1 (centres unmarked) , system aromatase (Rattus norvegicus, UniProt P22443).
5.49

Specify pEC50 for CCCSC(c1ccc(Cl)cc1)(c1ccc(Cl)cc1)c1cccnc1 , system aromatase (Rattus norvegicus, UniProt P22443).
5.76

Specify pEC50 for CN(C)c1ccc(C(O)(c2ccncc2)c2ccc(N(C)C)cc2)cc1 , system aromatase (Rattus norvegicus, UniProt P22443).
5.47

Specify pEC50 for OC(c1cccnc1)(c1ccc(Cl)cc1Cl)c1ccc(Cl)cc1Cl [hydrochloride] , system aromatase (Rattus norvegicus, UniProt P22443).
5.40

Specify pEC50 for OC(Cc1ccccc1)(Cc1ccccc1)c1cccnc1 [α,α-dibenzyl-3-pyridinemethanol] , system aromatase (Rattus norvegicus, UniProt P22443).
5.55

Specify pEC50 for Clc1ccccc1C(c1ccncc1)c1ccccc1Cl [4-bis(2-chlorophenyl)methylpyridine] , system aromatase (Rattus norvegicus, UniProt P22443).
6.31

Specify pEC50 for OC(c1ccc(Cl)cc1)(c1cccnc1)c1ccc2c(c1)OCO2 (centres unmarked) , system aromatase (Rattus norvegicus, UniProt P22443).
6.30

Specify pEC50 for OC(c1ccc(Cl)cc1)c1cccnc1 (stereo not drawn) [α-(3-pyridyl)-4-chlorobenzyl alcohol] , system aromatase (Rattus norvegicus, UniProt P22443).
5.62
